biological target: Sodium-dependent dopamine transporter (Homo sapiens, UniProt Q01959); assay: Inhibition of [3H]dopamine uptake at dopamine transporter
Sequence (Q01959 whole entry): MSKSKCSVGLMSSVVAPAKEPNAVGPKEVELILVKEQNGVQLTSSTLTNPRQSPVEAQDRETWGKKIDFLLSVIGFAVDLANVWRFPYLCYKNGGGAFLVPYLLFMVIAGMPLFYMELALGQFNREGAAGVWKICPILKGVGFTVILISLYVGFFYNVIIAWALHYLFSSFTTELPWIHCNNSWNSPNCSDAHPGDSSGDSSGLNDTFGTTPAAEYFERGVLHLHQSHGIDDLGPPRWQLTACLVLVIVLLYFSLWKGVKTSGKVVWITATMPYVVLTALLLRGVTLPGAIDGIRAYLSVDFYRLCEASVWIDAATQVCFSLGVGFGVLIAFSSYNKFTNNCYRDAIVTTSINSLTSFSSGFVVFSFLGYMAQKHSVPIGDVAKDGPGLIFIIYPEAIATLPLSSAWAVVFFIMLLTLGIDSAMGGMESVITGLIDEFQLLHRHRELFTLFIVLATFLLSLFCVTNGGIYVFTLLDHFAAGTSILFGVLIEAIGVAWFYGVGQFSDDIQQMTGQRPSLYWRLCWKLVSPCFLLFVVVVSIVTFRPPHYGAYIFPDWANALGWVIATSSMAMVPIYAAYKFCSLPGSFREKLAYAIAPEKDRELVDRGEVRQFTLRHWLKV
Provide the recorded pIC50 for the entries that follow.
One number for each entry, as −log10 of the molar value.

                            molecule_smiles  observed
0  O=C(CCCCCCCCCCS)Nc1ccc(CCCN2CCN(CCOC(c3ccccc3)c3ccccc3)CC2)cc1      8.00

# next molecule below
Ask: I am curious: what pIC50 value has been reported for `O=C(CCCCCCCCCCS)Nc1ccc(CCCN2CCN(CCOC(c3ccc(F)cc3)c3ccc(F)cc3)CC2)cc1` ?
Reply: 7.74

The measurements presented in this section are drawn from ChEMBL document CHEMBL1149518.
